assay: Inhibition of human MAGL
Property Name: pIC50
The meaning of pIC50 here: minus log10 of the concentration in molar units.

Record `O=C(NNC(=S)Nc1ccc(Cl)c(Cl)c1)c1ccccc1O` , field pIC50: 6.44

----------
experiment: Displacement of [125I]pirenzepine from human recombinant M1 receptor after 60 mins by scintillation counting analysis
Property Name: IC50 (nM)
Give the quantity in nM, number only.

Record `O=C(NNC(=S)Nc1ccc(Cl)c(Cl)c1)c1ccccc1O` , field IC50: 22

----------
experiment: Inhibition of human recombinant Arg1 using L-arginine as substrate after 5 mins in presence of [guanidino-14C]-L-arginine by liquid scintillation counting analysis
Property Name: pIC50
The meaning of pIC50 here: minus log10 of the concentration in molar units.

Record `O=C(NNC(=S)Nc1ccc(Cl)c(Cl)c1)c1ccccc1O` , field pIC50: 4.89
